// reported IC50 for each item listed
Tested on: M. tuberculosis H37Rv growth inhibition with meropenem
Procedure summary: dose response, H37Rv, with and without meropenem (AID 434987);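 also: growth over 7 days at 37 °C before Alamar Blue read on day 9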
Assay conditions: M. tuberculosis H37Rv growth inhibition; measured here: IC50 without meropenem
Readout name: IC50

INSERT INTO measurements (compound, result) VALUES
  ('O=C(N/N=C/c1cccc(NC(=O)c2ccc(Cl)cc2)c1)c1cccc(O)c1', '> 100 µM'),
  ('C/C(=N\NC(=O)c1cc2c(s1)CCC(C)C2)c1cccnc1 (stereo unspecified)', '> 100 µM'),
  ('Cc1ccccc1CSc1nnc(C)c(=O)n1N', '45.4 µM'),
  ('CCOC(=O)COc1nc(-c2ccc(Cl)cc2)cc(-c2ccco2)c1C#N', '> 100 µM'),
  ('COc1ccc(Cl)cc1NC(=O)NNC(=O)c1ccccn1', '> 100 µM'),
  ('COC(=O)c1ccc(/C=N/NC(=O)c2cccc(F)c2)cc1', '> 100 µM');

From: PubChem BioAssay AID434987
